Can you tell me log10(kon) for the items I'm about to list?
# ASSAYED_TARGET: MERS RBD-hFc (MERS-CoV (isolate EMC/2012))
# EXPERIMENT: SPR Biacore, captured mAb, 25 C
Values below are the log10 of the recorded kon, with M⁻¹ s⁻¹ as the unit.

Example entries and their recorded answers appear below.
H1H15208P (antibody, V domains shown) VH: EVQLVESGGDLVQPGGSLRLSCTASGFTFSNYEMNWVRQAPEKGLDWVSFISSSGGAIYYADSVKGRFTISRDNAKNSLYLQMNSLRAEDSAIYFCARSDSGGNSRYWGQGTLVTVSS VL: DIQMTQSPSSVSASVGDRVTVTCRASQDISNWLVWYQQKPGKAPKFLIYAASSLQSGVPSRFSGSGSGTDFTLTISSLQPEDFATYYCQQANSFPPTFGGGTKVEIK: 5.64
H2bM15292N (antibody, V domains shown) VH: QVQLVQSGAEVKKPGSSVKVSCKASGGTFNNYAISWVRQAPGQGLEWMGGIIPFFGTTNYAQKFQDRVTITSDDSTITAYMELSRLRSEDTAVYYCARDEPRRDGYNYYHYYYMDVWGQGTTVTVSS VL: DIQMTQSPSSLSASVGDRVTITCRASQSINSYLNWYQQKPGKAPNLLIYAASSLQSGVPSRFSGSGSGTDFTLTISSLHPEDFATYYCQQSYSTPPITFGQGTRLEIK: 5.66
H1M15289N (antibody, V domains shown) VH: QVQLQESGPGLVKPSETLSLTCTVSGGSISSYYWSWIRQPPGKGLEWIGYIYYSGSANYNPSLKSRVTISVDTSKNQFSLKLSSVTAADTAVYYCVRDRDLLLDHWGQGTLVTVSS VL: EIVMTQSPATLSVSPGKRATLSCRASQSVSSNLAWYQQKPGQAPRLLIYGASTRTTGFPARFSGSGSGTDFTLTISSLQSEDFAVYYCQQYNNWPYTFGQGTMLEIK: 5.32

Go through the items and report each one's log10(kon).
1. H2aM15278N (antibody, V domains shown) VH: QVQLVQSGAEVKKPGASVKVSCKASGYTFTSHGISWVRQAPGQGFEWMGWIGTYNSNTDYAQNFQGRVTMTTDTSTSTAYMELRNLRSDDTAVYYCARERGPYYGMDVWGQGTTVTVSS VL: EIVLAQSPGTLSLSPGERATLSCRASQSVNSNYLAWYQQKPGQAPRLLIYGASSRATGIPDRFSGSGSGTDFTLTISRLEPEDFAVYYCQQYGNSLTFGPGTKVDFK
2. H2aM15287N (antibody, V domains shown) VH: QLQLQESGPGLVKPSETLSLTCTVSGGSISSGNYYWGWIRQPPGKGLEWFGTIYYSGSTYYNPSLKSRVTISVDTSKNQFSLKLSSVTAADTAVYYCARRAAVGHFDYWGQGTLVTVSS VL: DIQMTQSPSTLSASVGDRVTITCRASQSISTWLAWYQQKPGKAPKLLIYEASSLESGVPSRFSGSGFGTEFTLTISRLQPDDFATYFCQQYNTYWTFGQGTKVEIK

[6.24, 4.80]

Value source: patent US20190351049A1
